Entries and their t½ values follow.
Target: T1, cynomolgus monkey IL-33 expressed with a C-terminal hexahistidine tag (cynomolgus monkey)
T1 construct: also called MfIL-33-6His; Mf-IL-33-6His
T1 chain: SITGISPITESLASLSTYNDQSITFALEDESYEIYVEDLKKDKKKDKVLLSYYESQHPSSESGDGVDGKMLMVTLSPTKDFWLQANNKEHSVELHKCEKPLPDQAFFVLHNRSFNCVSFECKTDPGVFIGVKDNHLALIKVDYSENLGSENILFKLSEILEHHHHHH
Test: SPR 25C, pH6.0 chase, mAb captured

Look up t½: H4H9659P (antibody, human IgG4, V domains shown, Human IgG4 Fc (H4H)) VH: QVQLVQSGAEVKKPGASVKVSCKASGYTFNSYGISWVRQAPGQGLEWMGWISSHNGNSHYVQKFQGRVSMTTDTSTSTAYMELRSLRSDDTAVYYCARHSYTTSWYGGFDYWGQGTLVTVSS VL: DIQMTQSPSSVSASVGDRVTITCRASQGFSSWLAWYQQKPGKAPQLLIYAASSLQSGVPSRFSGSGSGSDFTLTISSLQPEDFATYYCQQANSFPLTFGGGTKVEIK
94 min

What about H4H9670P (antibody, V domains shown, Human IgG4 Fc (H4H)) VH: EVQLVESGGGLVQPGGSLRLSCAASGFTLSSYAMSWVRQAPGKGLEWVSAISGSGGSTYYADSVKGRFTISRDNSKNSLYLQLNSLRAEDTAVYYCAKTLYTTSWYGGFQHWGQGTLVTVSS VL: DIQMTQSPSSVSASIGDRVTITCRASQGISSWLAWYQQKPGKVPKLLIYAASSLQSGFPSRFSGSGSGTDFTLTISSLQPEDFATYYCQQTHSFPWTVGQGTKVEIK ?
29 min

Next record, please: H1M9566N (antibody, mouse IgG1, V domains shown, Human variable domains, mouse IgG1 Fc (H1M)) VH: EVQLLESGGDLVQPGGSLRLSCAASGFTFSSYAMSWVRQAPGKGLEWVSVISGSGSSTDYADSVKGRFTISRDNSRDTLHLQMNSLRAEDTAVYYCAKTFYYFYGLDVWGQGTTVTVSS VL: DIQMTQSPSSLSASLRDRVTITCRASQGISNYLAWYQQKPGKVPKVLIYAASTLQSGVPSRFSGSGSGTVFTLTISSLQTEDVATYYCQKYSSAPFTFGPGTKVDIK
91 min

Hello, the source for this data is patent US20160362487A1, in case you need it.
